# credit: PubChem BioAssay

protocol.description: mitochondrial membrane potential change in A549 cells, profiling panel, cell-based, JC-1 fluorescence, basal, 24 h, 100 nL (AID 1138);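 further: A549 lung adenocarcinoma cells under basal conditions with no added stimulus; test concentration not given here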
assay.setup: higher = more signal
Threshold rule: z-score greater than or equal to -1 is true; below that, false.

Is z-score for CCCNC(=O)[C@@]1(Sc2ccc(C)cc2)CC(=O)N(C2CCCCC2)[C@@H]1c1ccc(CO)cc1I at or above -1?
true

---

protocol.description: small-molecule microarray binders of probe aXIP, primary screen, biochemical, NeuroSMM set, 635/667 nm fluorescence (AID 1119);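 further: probe is the protein aXip251-270 applied at 1 µg/mL to compound-printed slides; binding of probe to printed compounds measured as 667 nm fluorescence plus signal to noise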
assay.setup: higher = more signal, called active from +8 up or from −8 down
The source made the active and inactive calls.
# composite Z-score per record follows

Example molecules with recorded composite Z-score:
[
  {
    "molecule": "CN1C(=O)C2C=CC(C(O)c3ccc(I)cc3)N(Nc3ccccc3)C2C1=O (centres undefined)",
    "composite Z-score": "0.412 (inactive)"
  },
  {
    "molecule": "C=CCOC(=O)[C@H]1[C@@H]2C(=O)O[C@@H](c3ccccc3)[C@@H](c3ccccc3)N2[C@@H](c2ccc(OCCOC(=O)[C@H]3C[C@H]4C(=O)N[C@@H](CCCCNC(C)=O)C(=O)N4[C@H]3c3cccc(OCCO)c3)cc2)[C@]12C(=O)Nc1ccc(I)cc12",
    "composite Z-score": "1.97 (inactive)"
  },
  {
    "molecule": "CC1(C)C(=O)C(c2ccccc2)=C2CN3C(=O)N(CCc4ccccc4)C(=O)C3(Cc3ccc(F)cc3)C=C21 (centres undefined)",
    "composite Z-score": "0.0294 (inactive)"
  },
  {
    "molecule": "CN(C)CCCNC(=O)[C@@H]1c2ccccc2C(=O)N(C2CCCCC2)[C@H]1c1ccc(CO)cc1",
    "composite Z-score": "0.245 (inactive)"
  },
  {
    "molecule": "Cc1ccccc1C(O)C1C=CC2C(=O)N(c3ccccc3)C(=O)C2N1Nc1ccc([N+](=O)[O-])cc1 (centres undefined)",
    "composite Z-score": "1.19 (inactive)"
  }
]

So for COc1cc(NN2C(C(O)c3cc(OC)c(OC)c(OC)c3)C=CC3C(=O)N(c4ccccc4)C(=O)C32)cc(OC)c1OC (centres undefined) , the logged composite Z-score turned out to be 0.573 (inactive)

So for COC(=O)C(CC#Cc1ccc2c(c1)[C@]1(C(=O)N2)[C@H](c2ccc(OCCO)cc2)N2[C@H](c3ccccc3)[C@H](c3ccccc3)OC(=O)[C@H]2[C@@H]1C(=O)N1CCN(c2ncccn2)CC1)C(=O)OC , the logged composite Z-score turned out to be 0.434 (inactive)

So for [N-]=[N+]=NCc1ccccc1[C@@H]1OC(c2ccc(OCCCO)cc2)=N[C@]1(Cc1ccccc1N=[N+]=[N-])C(=O)NCCN1CCOCC1 , the logged composite Z-score turned out to be 0.215 (inactive)

So for COC(=O)[C@@]1(Cc2ccc(OC)cc2)[C@H]2c3cc(C(=O)N4CCCC4)n(Cc4ccc(S(C)(=O)=O)cc4)c3C[C@H]2CN1C(=O)c1ccccc1 , the logged composite Z-score turned out to be 0.602 (inactive)

So for COCCOC(=O)N1C(=O)[C@@]2(c3ccccc31)[C@H](c1ccc(OCCO)cc1)N1[C@H](c3ccccc3)[C@H](c3ccccc3)OC(=O)[C@H]1[C@@H]2C(=O)N1CCCCCCC1 , the logged composite Z-score turned out to be 7.84 (inactive)

So for CC(=O)NCCCC[C@@H]1NC(=O)[C@@H]2C[C@H](C(=O)NCCCCCCN)[C@H](c3cccc(OCCO)c3)N2C1=O , the logged composite Z-score turned out to be 0.801 (inactive)

So for COCCOC(=O)N1C(=O)[C@@]2(c3cc(C#Cc4ccc(OC)cc4)ccc31)[C@H](C(=O)NC[C@H](O)c1ccccc1)[C@H]1C(=O)O[C@H](c3ccccc3)[C@H](c3ccccc3)N1[C@@H]2c1ccc(OCCO)cc1 , the logged composite Z-score turned out to be -0.014 (inactive)

So for CN(C)CCCCCCNC(=O)[C@@H]1C[C@@H]2C(=O)N[C@@H](CCCCN)C(=O)N2[C@@H]1c1ccc(O)cc1 , the logged composite Z-score turned out to be 3.97 (inactive)

So for COc1ccc([Si](C)(C)[C@H]2[C@H](CCO)O[C@@]3(C(=O)N(Cc4ccccc4)c4ccc(N5CCOC5=O)cc43)[C@@H]2C)cc1 , the logged composite Z-score turned out to be -0.326 (inactive)
